tested on: primary human hepatocytes; assay: Apparent (lumped active transport and passive diffusion) import and export in primary human hepatocytes; type: in vitro ADME; settings: Individual 1, nominal value from optimization
property: κim (apparent rate constant of import) (µL/min)
State the answer as a number, implicitly in µL/min.

The following compounds have reported results that may help.
INSERT INTO measurements (compound, property, result) VALUES
  ('CC(C)c1c(C(=O)Nc2ccccc2O)c(-c2ccccc2)c(-c2ccc(F)cc2)n1CC[C@@H]1C[C@@H](O)CC(=O)O1 [ASLoOH, ortho-hydroxy-atorvastatin lactone]', 'κim (apparent rate constant of import)', 26.1),
  ('CC(C)c1c(C(=O)Nc2ccccc2O)c(-c2ccccc2)c(-c2ccc(F)cc2)n1CCC(O)CC(O)CC(=O)O (stereo not shown) [ASoOH, ortho-hydroxy-atorvastatin acid]', 'κim (apparent rate constant of import)', 0.39),
  ('CC(C)c1c(C(=O)Nc2ccccc2)c(-c2ccccc2)c(-c2ccc(F)cc2)n1CC[C@@H]1C[C@@H](O)CC(=O)O1', 'κim (apparent rate constant of import)', 275);

Next compound, κim (apparent rate constant of import) to be filled in.
Problem: Input CC(C)c1c(C(=O)Nc2ccc(O)cc2)c(-c2ccccc2)c(-c2ccc(F)cc2)n1CC[C@@H](O)C[C@@H](O)CC(=O)O [ASpOH, para-hydroxy-atorvastatin acid] , output reported κim (apparent rate constant of import).
Result: 3.96

----------
Test system: primary human hepatocytes
Assay: Apparent (lumped active transport and passive diffusion) import and export in primary human hepatocytes
Format: in vitro ADME
Details: Individual 1, nominal value from optimization
Description: Thus, in the following, mechanisms of active transport and passive diffusion are lumped, resulting in the apparent transport rate for import,(12) [drawing 22] and in the apparent transport rate for export(13) [drawing 23] described by the product of apparent rate constant κ im/ex of import or export and extra- or intracellular concentration [drawing 24] , respectively (Figure 3). […]
Listing: κex (apparent rate constant of export) of selected molecules
State the answer as a number, implicitly in µL/min.

The following molecules have reported results that may help.
INSERT INTO measurements (molecule, property, result) VALUES
  ('CC(C)c1c(C(=O)Nc2ccccc2O)c(-c2ccccc2)c(-c2ccc(F)cc2)n1CCC(O)CC(O)CC(=O)O (stereo not shown) [ASoOH, ortho-hydroxy-atorvastatin acid]', 'κex (apparent rate constant of export)', 1.60),
  ('CC(C)c1c(C(=O)Nc2ccccc2)c(-c2ccccc2)c(-c2ccc(F)cc2)n1CC[C@@H]1C[C@@H](O)CC(=O)O1 [ASL, atorvastatin lactone]', 'κex (apparent rate constant of export)', 21.8),
  ('CC(C)c1c(C(=O)Nc2ccccc2O)c(-c2ccccc2)c(-c2ccc(F)cc2)n1CC[C@@H]1C[C@@H](O)CC(=O)O1 [ASLoOH, ortho-hydroxy-atorvastatin lactone]', 'κex (apparent rate constant of export)', 2.67);

Next molecule, κex (apparent rate constant of export) to be filled in.
Problem: Input CC(C)c1c(C(=O)Nc2ccc(O)cc2)c(-c2ccccc2)c(-c2ccc(F)cc2)n1CC[C@@H](O)C[C@@H](O)CC(=O)O [ASpOH, para-hydroxy-atorvastatin acid] , output reported κex (apparent rate constant of export).
Result: 0.80
